Below are AC50 values measured for Alpha-2A adrenergic receptor (Homo sapiens, UniProt P08913).
Quantity measured: AC50

{"columns": ["Molecule", "Target system", "Result"],
 "data": [
  ["Cc1ccc(C(=O)C(C)CN2CCCCC2)cc1 (centres undefined)", "Alpha-2A adrenergic receptor (Homo sapiens, UniProt P08913)", "> 30 µM"],
  ["COc1cc(C(C)=O)ccc1OCCCN1CCC(c2noc3cc(F)ccc23)CC1", "Alpha-2A adrenergic receptor (Homo sapiens, UniProt P08913)", "0.06 µM"],
  ["COc1ccc2c(C(=S)N(C)CC(=O)O)cccc2c1C(F)(F)F", "Alpha-2A adrenergic receptor (Homo sapiens, UniProt P08913)", "> 30 µM"],
  ["COc1ccccc1OC1(C)OC(=O)c2ccccc2O1 (centres undefined)", "Alpha-2A adrenergic receptor (Homo sapiens, UniProt P08913)", "> 30 µM"],
  ["N#Cc1ccc(Oc2ccc3c(c2)COB3O)cc1", "Alpha-2A adrenergic receptor (Homo sapiens, UniProt P08913)", "> 30 µM"],
  ["CC(=O)[C@]1(N)Cc2c(O)c3c(c(O)c2[C@@H](O[C@H]2C[C@H](O)[C@H](O)CO2)C1)C(=O)c1ccccc1C3=O", "Alpha-2A adrenergic receptor (Homo sapiens, UniProt P08913)", "> 30 µM"],
  ["C[C@]12C=CC(=O)C=C1CC[C@H]1[C@@H]3C[C@@H](O)[C@](O)(C(=O)CO)[C@@]3(C)C[C@H](O)[C@@]12F", "Alpha-2A adrenergic receptor (Homo sapiens, UniProt P08913)", "> 30 µM"],
  ["CC(=O)NCCCCCC(=O)O", "Alpha-2A adrenergic receptor (Homo sapiens, UniProt P08913)", "> 30 µM"],
  ["CN(C)c1ccc(O)c2c1C[C@H]1C[C@H]3[C@H](N(C)C)C(O)=C(C(N)=O)C(=O)[C@@]3(O)C(O)=C1C2=O", "Alpha-2A adrenergic receptor (Homo sapiens, UniProt P08913)", "> 30 µM"],
  ["CC(C)C[C@H](NC(=O)[C@@H](O)[C@H](N)Cc1ccccc1)C(=O)O", "Alpha-2A adrenergic receptor (Homo sapiens, UniProt P08913)", "> 30 µM"],
  ["Cc1ccc(S(=O)(=O)NC(=O)NC2CCCCC2)cc1 [GLYCYCLAMIDE]", "Alpha-2A adrenergic receptor (Homo sapiens, UniProt P08913)", "> 30 µM"],
  ["O=C(CCC/C=C\\C[C@@H]1[C@@H](CC[C@@H](O)CCc2ccccc2)[C@H](O)C[C@@H]1O)OCCCCO[N+](=O)[O-]", "Alpha-2A adrenergic receptor (Homo sapiens, UniProt P08913)", "> 30 µM"],
  ["CCCCc1oc2ccc(NS(C)(=O)=O)cc2c1C(=O)c1ccc(OCCCN(CCCC)CCCC)cc1", "Alpha-2A adrenergic receptor (Homo sapiens, UniProt P08913)", "13.4 µM"],
  ["CCCc1nc2c(C)cc(-c3nc4ccccc4n3C)cc2n1Cc1ccc(-c2ccccc2C(=O)O)cc1", "Alpha-2A adrenergic receptor (Homo sapiens, UniProt P08913)", "> 30 µM"],
  ["CCCSc1nc(N[C@@H]2C[C@H]2c2ccc(F)c(F)c2)c2nnn([C@@H]3C[C@H](OCCO)[C@@H](O)[C@H]3O)c2n1", "Alpha-2A adrenergic receptor (Homo sapiens, UniProt P08913)", "> 30 µM"],
  ["CC(OCCN1CCCCCC1)(c1ccccc1)c1ccc(Cl)cc1 (centres undefined)", "Alpha-2A adrenergic receptor (Homo sapiens, UniProt P08913)", "7.86 µM"],
  ["O=C(O)COCCN1CCN(C(c2ccccc2)c2ccc(Cl)cc2)CC1 (centres undefined)", "Alpha-2A adrenergic receptor (Homo sapiens, UniProt P08913)", "> 30 µM"],
  ["COc1cccc(C(=O)CCN[C@@H](C)[C@H](O)c2ccccc2)c1", "Alpha-2A adrenergic receptor (Homo sapiens, UniProt P08913)", "5.96 µM"],
  ["C[C@H]1O[C@@H](O[C@H]2CC[C@@]3(C)[C@H](CC[C@@H]4[C@@H]3C[C@@H](O)[C@]3(C)[C@@H](C5=CC(=O)OC5)CC[C@]43O)C2)C[C@H](O)[C@@H]1O[C@H]1C[C@H](O)[C@H](O[C@H]2C[C@H](O)[C@H](O[C@@H]3O[C@H](CO)[C@@H](O)[C@H](O)[C@H]3O)[C@@H](C)O2)[C@@H](C)O1 [DESLANOSIDE]", "Alpha-2A adrenergic receptor (Homo sapiens, UniProt P08913)", "> 30 µM"],
  ["O=C(O)P(=O)(O)O", "Alpha-2A adrenergic receptor (Homo sapiens, UniProt P08913)", "> 30 µM"],
  ["C[Se]CC[C@H](N)C(=O)O", "Alpha-2A adrenergic receptor (Homo sapiens, UniProt P08913)", "> 30 µM"],
  ["CC(O)(P(=O)(O)O)P(=O)(O)O", "Alpha-2A adrenergic receptor (Homo sapiens, UniProt P08913)", "> 30 µM"],
  ["COC(=O)[C@@H](N)Cc1ccc(O)c(O)c1", "Alpha-2A adrenergic receptor (Homo sapiens, UniProt P08913)", "20.3 µM"],
  ["CCCCC1C(=O)N(c2ccccc2)N(c2ccc(O)cc2)C1=O (centres undefined) [OXYPHENBUTAZONE ANHYDROUS]", "Alpha-2A adrenergic receptor (Homo sapiens, UniProt P08913)", "> 30 µM"],
  ["NNCCc1ccccc1", "Alpha-2A adrenergic receptor (Homo sapiens, UniProt P08913)", "25.4 µM"],
  ["COc1c2occc2c(OC)c2c(=O)cc(C)oc12", "Alpha-2A adrenergic receptor (Homo sapiens, UniProt P08913)", "> 30 µM"],
  ["C[N+]1(C)CCCC(OC(=O)C(O)(c2ccccc2)c2ccccc2)C1 (centres undefined) [MEPENZOLATE]", "Alpha-2A adrenergic receptor (Homo sapiens, UniProt P08913)", "> 30 µM"],
  ["CC1(C)O[C@@H]2C[C@H]3[C@@H]4C[C@H](F)C5=CC(=O)C=C[C@]5(C)[C@@]4(F)[C@@H](O)C[C@]3(C)[C@]2(C(=O)CO)O1 [FLUOCINOLONE ACETONIDE]", "Alpha-2A adrenergic receptor (Homo sapiens, UniProt P08913)", "> 30 µM"],
  ["N[C@@H](Cc1ccccc1)C(=O)O", "Alpha-2A adrenergic receptor (Homo sapiens, UniProt P08913)", "> 30 µM"]
]}
